target.of.assay: human P2X7 receptor (Homo sapiens (Human), UniProt Q99572)
procedure.details: Pore permeation assay (YO PRO dye uptake)
Type: cell-based
pIC50: −log10 of the molar value.
readout.label: pIC50

### Prompt Give the observed pIC50 of O=C(NCC1CCCCC1)c1cn(C2CCOC2)c2cccc(Cl)c12 (stereo not shown) for human P2X7 receptor (Homo sapiens (Human), UniProt Q99572).
### Response 6.30 to 7.00

### Prompt Give the observed pIC50 of O=C(NCC1CCCC(F)(F)C1)c1cn(CC2CCCN2)c2cccc(Cl)c12 (stereo not shown) for human P2X7 receptor (Homo sapiens (Human), UniProt Q99572).
### Response 7.00 to 8.00

### Prompt Give the observed pIC50 of `O=C(NC[C@]1(O)CCCC(F)(F)C1)c1cn(CCN2CCCC2=O)c2cccc(Cl)c12` for human P2X7 receptor (Homo sapiens (Human), UniProt Q99572).
### Response 7.00 to 8.00

### Prompt Give the observed pIC50 of `O=C(NC1(C2CCCCC2)CC1)c1cn(C2COC2)c2cccc(Cl)c12` for human P2X7 receptor (Homo sapiens (Human), UniProt Q99572).
### Response 6.30 to 7.00

====

Exercise: for every item that follows, state its recorded IC50.
target.of.assay: P2X7 (IL-1β release from THP-1 cells) (Homo sapiens (Human), UniProt Q99572)
Sequence (Q99572 whole entry): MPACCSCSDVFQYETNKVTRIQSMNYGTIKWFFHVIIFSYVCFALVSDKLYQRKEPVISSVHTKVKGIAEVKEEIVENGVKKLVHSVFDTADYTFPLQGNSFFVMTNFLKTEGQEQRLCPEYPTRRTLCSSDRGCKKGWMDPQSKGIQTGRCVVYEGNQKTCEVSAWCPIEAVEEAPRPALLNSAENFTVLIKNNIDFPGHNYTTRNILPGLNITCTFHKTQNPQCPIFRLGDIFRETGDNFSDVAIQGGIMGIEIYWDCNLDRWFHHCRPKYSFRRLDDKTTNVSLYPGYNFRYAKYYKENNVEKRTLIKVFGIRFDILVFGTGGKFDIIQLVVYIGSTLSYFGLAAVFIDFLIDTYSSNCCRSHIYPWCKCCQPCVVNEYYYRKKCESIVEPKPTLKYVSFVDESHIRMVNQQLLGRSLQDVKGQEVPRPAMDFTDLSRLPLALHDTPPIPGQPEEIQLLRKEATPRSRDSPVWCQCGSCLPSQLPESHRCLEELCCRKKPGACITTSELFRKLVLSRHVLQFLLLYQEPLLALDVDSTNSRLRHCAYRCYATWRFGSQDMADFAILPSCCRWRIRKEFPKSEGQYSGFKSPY
procedure.details: IL-1β release assay
Type: cell-based
measurement.context: THP-1 cells, LPS primed, 0.8 mM BzATP; mature IL-1β by sandwich ELISA; read-out: hTHP-1/IL-ib IC50

### Prompt Provide IC50 value for the following molecule: `O=C(NC[C@@]1(O)CCCC(F)(F)C1)c1cn(CCN2CCCC2)c2cccc(Cl)c12`
### Response > 1000 nM

### Prompt Provide IC50 value for the following molecule: `O=C(NC[C@H]1CCCC[C@H]1O)c1cn(C2COC2)c2cccc(Cl)c12`
### Response > 1000 nM

### Prompt Provide IC50 value for the following molecule: `CC(C)N1CC[C@H]1Cn1cc(C(=O)NCC2CCC(F)(F)CC2)c2c(Cl)cccc21`
### Response > 1000 nM

### Prompt Provide IC50 value for the following molecule: O=C(NCC1CCC(F)(F)CC1)c1cn(CC2CCCCN2)c2cccc(Cl)c12 (stereo not drawn)
### Response < 10 nM

### Prompt Provide IC50 value for the following molecule: `COCCn1cc(C(=O)NCC2CCC(F)(F)CC2)c2c(Cl)cccc21`
### Response < 10 nM

### Prompt Provide IC50 value for the following molecule: `O=C(NCCOC1CCCC1)c1cn(C2COC2)c2cccc(Cl)c12`
### Response > 1000 nM

### Prompt Provide IC50 value for the following molecule: O=C(NCC1CCCC(F)(F)C1)c1cn(CC2CCCN2)c2cccc(Cl)c12 (stereo not drawn)
### Response < 10 nM

### Prompt Provide IC50 value for the following molecule: `CC(=O)N1CC[C@H]1Cn1cc(C(=O)NCC2CCC(F)(F)CC2)c2c(Cl)cccc21`
### Response 101 to 500 nM

### Prompt Provide IC50 value for the following molecule: `O=C(NC[C@@]1(O)CCCC(F)(F)C1)c1cn(CCN2CCCC2=O)c2cccc(Cl)c12`
### Response > 1000 nM

====

target.of.assay: P2X7 (IL-1β release from THP-1 cells) (Homo sapiens (Human))
procedure.details: IL-1β release assay
Assay type: cell-based
Exercise: for every item that follows, state its recorded IC50.

### Prompt Provide IC50 value for the following compound: CC1CC(O)(CNC(=O)c2cn(C3CCOC3)c3cccc(Cl)c23)CCC1(F)F (centres unmarked) [Compound 106]
### Response 101 to 500 nM

### Prompt Provide IC50 value for the following compound: CC1CC(F)(F)CC(O)(CNC(=O)c2cn(CC3CCCO3)c3cccc(Cl)c23)C1 (centres unmarked) [Compound 138]
### Response 101 to 500 nM

### Prompt Provide IC50 value for the following compound: C[C@H]1CCC[C@@](O)(CNC(=O)c2cn(CC3CCCO3)c3cccc(Cl)c23)C1 (some centres unmarked) [Compound 140]
### Response 10 to 100 nM

### Prompt Provide IC50 value for the following compound: O=C(NCC1(O)CCCC(F)(F)C1)c1cn(CC2CCCO2)c2cccc(Cl)c12 (centres unmarked) [Compound 139]
### Response 10 to 100 nM

### Prompt Provide IC50 value for the following compound: O=C(NCCC1CCCC1)c1cn(C2CCOC2)c2cccc(Cl)c12 (centres unmarked) [Compound 108]
### Response 101 to 500 nM

### Prompt Provide IC50 value for the following compound: O=C(NCC1CCC(F)(F)CC1)c1cn(CCN2CCCCC2)c2cccc(Cl)c12 [Compound 193]
### Response 10 to 100 nM

### Prompt Provide IC50 value for the following compound: O=C(NCC1CCCCC1)c1cn(C2COC2)c2cccc(Cl)c12 [Compound 48]
### Response 101 to 500 nM

### Prompt Provide IC50 value for the following compound: CN1CC(n2cc(C(=O)NCC3(O)CCC(F)(F)CC3)c3c(Cl)cccc32)C1 [Compound 118]
### Response 10 to 100 nM

### Prompt Provide IC50 value for the following compound: CN1CCCC1Cn1cc(C(=O)NCC2CCC(F)(F)CC2)c2c(Cl)cccc21 (centres unmarked) [Compound 170]
### Response 10 to 100 nM

### Prompt Provide IC50 value for the following compound: COCCn1cc(C(=O)NCC2(O)CCC(F)(F)CC2)c2c(Cl)cccc21 [Compound 40]
### Response 10 to 100 nM

### Prompt Provide IC50 value for the following compound: C[C@@H](NC(=O)c1cn(C2CCOC2)c2cccc(Cl)c12)C1C[C@H]2CC[C@@H]1C2 (some centres unmarked) [Compound 109]
### Response 500 to 999 nM

====

target.of.assay: human P2X7 receptor (Homo sapiens (Human))
procedure.details: Pore permeation assay (YO PRO dye uptake)
Format: cell-based
readout.label: IC50

### Prompt Provide IC50 value for the following compound: O=C(NCC1CCC(F)(F)CC1)c1cn(CC2CCOC2)c2cccc(Cl)c12 (stereo not drawn) [Compound 148]
### Response 10 to 100 nM

### Prompt Provide IC50 value for the following compound: O=C(NCCOC1CCCC1)c1cn(C2COC2)c2cccc(Cl)c12 [Compound 72]
### Response 500 to 999 nM

### Prompt Provide IC50 value for the following compound: O=C(NCC1(O)CCC(F)(F)CC1)c1cn(CC2CCO2)c2cccc(Cl)c12 (stereo not drawn) [Compound 115]
### Response 101 to 500 nM

### Prompt Provide IC50 value for the following compound: CC1CC(F)(F)CC(O)(CNC(=O)c2cn(C3COC3)c3cccc(Cl)c23)C1 (stereo not drawn) [Compound 89]
### Response 101 to 500 nM

### Prompt Provide IC50 value for the following compound: COCCn1cc(C(=O)NCC2CCC(F)(F)CC2)c2c(C(F)(F)F)cccc21 [Compound 199]
### Response 101 to 500 nM

### Prompt Provide IC50 value for the following compound: O=C(NCC1CCC(F)(F)CC1)c1cn(C2CCNC2)c2cccc(Cl)c12 (stereo not drawn) [Compound 121]
### Response 10 to 100 nM
